Molecular target: T1, cell-bound CD73 (human, UniProt P21589 27-549)
T1 sequence (looked up): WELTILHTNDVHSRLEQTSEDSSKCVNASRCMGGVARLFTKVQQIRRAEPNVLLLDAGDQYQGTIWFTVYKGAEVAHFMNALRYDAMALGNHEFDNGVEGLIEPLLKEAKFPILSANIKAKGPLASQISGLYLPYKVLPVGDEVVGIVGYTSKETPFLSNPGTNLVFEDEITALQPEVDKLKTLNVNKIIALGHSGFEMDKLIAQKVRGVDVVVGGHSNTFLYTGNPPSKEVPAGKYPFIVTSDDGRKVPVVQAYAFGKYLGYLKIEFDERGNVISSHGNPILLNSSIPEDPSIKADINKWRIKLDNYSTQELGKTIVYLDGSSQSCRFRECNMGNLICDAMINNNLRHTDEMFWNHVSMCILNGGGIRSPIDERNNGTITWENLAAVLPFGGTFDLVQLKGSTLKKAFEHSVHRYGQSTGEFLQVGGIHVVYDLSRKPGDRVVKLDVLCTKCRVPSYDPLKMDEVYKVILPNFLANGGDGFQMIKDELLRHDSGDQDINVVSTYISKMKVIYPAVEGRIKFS
Experiment: cell-based or functional assay
Each item that follows carries a reported CD8 T cell proliferation [% of control], Donor C, 1 nM antibody.
// return numeric value only (unit: %, not printed)

Measured CD8 T cell proliferation [% of control], Donor C, 1 nM antibody, C1 (antibody, human IgG1, kappa, L234A L235A, V domains shown, Humanized monoclonal antibody; also called anti-CD73 antibody C1) VH: QVQLVQSGAEVKKPGDSVKVSCKASGYTFTTYWMHWVRQAPGQGLEWMGAIYPGFSDTTYSQKFKGKVTMTRDTSTSTVYMKLSSLRSEDTAVYYCARLLDYAMDYWGQGTLVTVSS VL: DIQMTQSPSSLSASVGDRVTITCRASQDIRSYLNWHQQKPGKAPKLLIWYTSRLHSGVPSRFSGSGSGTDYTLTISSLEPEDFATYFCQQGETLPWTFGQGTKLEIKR : 107

New cases:
Measured CD8 T cell proliferation [% of control], Donor C, 1 nM antibody, B2 (antibody, human IgG1, kappa, L234A L235A, V domains shown, Humanized monoclonal antibody; also called anti-CD73 antibody B2) VH: EVQLVESGGGLVQPGGSLRLSCAASGLTFSSYVMSWVRQAPGKGLEWVSTISSGGVSTYYPDTVKGRFTISRDNSKNTLYLQMNSLRAEDTAVYYCAKRETARATGFAYWGQGTLVTVSA VL: DIQMTQSPSSLSASVGDRVTITCKASQSVSDDVTWYQQKPGKAPKLLIYYASNRYTGVPSRFSGSGSGTDFTFTISSVQPEDIATYYCQQDYSSPWTFGGGTKLEIKR : 95.8

Measured CD8 T cell proliferation [% of control], Donor C, 1 nM antibody, C3 (antibody, human IgG1, kappa, L234A L235A, V domains shown, Humanized monoclonal antibody; also called anti-CD73 antibody C3) VH: QVQLVQSGAEVKKPGDSVKVSCKASGYTFTTYWMHWVRQAPGQGLEWMGAIYPGLSDTTYSQKFKGKVTMTRDTSTSTVYMKLSSLRSEDTAVYYCARLLDYAMDYWGQGTLVTVSS VL: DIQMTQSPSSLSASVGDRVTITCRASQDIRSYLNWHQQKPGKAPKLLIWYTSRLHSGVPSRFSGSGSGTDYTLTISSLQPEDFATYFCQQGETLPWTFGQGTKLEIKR : 116

Measured CD8 T cell proliferation [% of control], Donor C, 1 nM antibody, C4 (antibody, human IgG1, kappa, L234A L235A, V domains shown, Humanized monoclonal antibody; also called C04; inventive anti-CD73 antibody C4) VH: QVQLVQSGAEVKKPGDSVKVSCKASGYTFTTYWMHWVRQAPGQGLEWMGAIYPGLSDTTYNQKFKGKVTMTRDTSTSTVYMKLSSLRSEDTAVYYCARLLDYAMDYWGQGTLVTVSS VL: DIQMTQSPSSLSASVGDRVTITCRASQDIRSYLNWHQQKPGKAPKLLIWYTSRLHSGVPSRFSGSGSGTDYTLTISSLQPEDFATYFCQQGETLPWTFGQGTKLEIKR : 111

Measured CD8 T cell proliferation [% of control], Donor C, 1 nM antibody, C6 (antibody, human IgG1, kappa, L234A L235A, V domains shown, Humanized monoclonal antibody; also called anti-CD73 antibody C6) VH: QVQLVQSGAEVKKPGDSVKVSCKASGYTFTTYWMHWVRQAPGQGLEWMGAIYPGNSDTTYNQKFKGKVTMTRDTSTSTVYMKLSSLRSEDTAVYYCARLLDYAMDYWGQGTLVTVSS VL: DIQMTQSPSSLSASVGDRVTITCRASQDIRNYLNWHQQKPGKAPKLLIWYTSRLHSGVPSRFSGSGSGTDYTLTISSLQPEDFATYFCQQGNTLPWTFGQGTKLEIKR : 88.3

Measured CD8 T cell proliferation [% of control], Donor C, 1 nM antibody, C5 (antibody, human IgG1, kappa, L234A L235A, V domains shown, Humanized monoclonal antibody; also called anti-CD73 antibody C5) VH: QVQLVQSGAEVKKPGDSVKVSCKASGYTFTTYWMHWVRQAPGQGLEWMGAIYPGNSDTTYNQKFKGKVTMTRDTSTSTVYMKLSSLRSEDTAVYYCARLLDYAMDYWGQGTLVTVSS VL: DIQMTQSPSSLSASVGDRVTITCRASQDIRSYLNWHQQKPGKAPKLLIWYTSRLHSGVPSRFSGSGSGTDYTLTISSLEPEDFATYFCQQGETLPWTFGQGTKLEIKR : 101

Taken from patent US20190352420A1.
